Molecular target: UniProt:P35372
Sequence (P35372 whole entry): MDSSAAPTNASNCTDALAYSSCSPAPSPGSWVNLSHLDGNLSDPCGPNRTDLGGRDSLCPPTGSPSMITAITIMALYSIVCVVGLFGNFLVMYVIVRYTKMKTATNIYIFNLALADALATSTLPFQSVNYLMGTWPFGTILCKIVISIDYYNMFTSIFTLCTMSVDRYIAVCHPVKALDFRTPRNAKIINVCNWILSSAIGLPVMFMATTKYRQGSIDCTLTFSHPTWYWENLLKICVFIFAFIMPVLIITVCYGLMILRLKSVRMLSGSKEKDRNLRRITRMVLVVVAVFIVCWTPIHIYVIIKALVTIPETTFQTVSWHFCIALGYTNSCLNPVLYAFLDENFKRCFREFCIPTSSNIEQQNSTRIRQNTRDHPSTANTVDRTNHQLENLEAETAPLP
Experiment: Agonist activity at FLAG-tagged mu-type opioid receptor (unknown origin) expressed in HEK293 cells assessed as inhibition of forskolin-stimulated cAMP accumulation after 30 mins by liquid scintillation counting analysis relative to DAMGO
Type: functional, cell-based
Emax: recorded values
observed property: Emax

1. C=C(C(N)=O)[C@@H](NC(=O)[C@H](Cc1c[nH]c2ccccc12)NC(=O)[C@H]1CCN(C(=O)[C@@H](N)Cc2c(C)cc(O)cc2C)C1)c1ccco1	98.6%
2. C=C(C(N)=O)[C@@H](NC(=O)[C@H](Cc1c[nH]c2ccccc12)NC(=O)[C@@H]1CCN(C(=O)[C@@H](N)Cc2ccc(O)cc2)C1)c1ccco1	96.2%
3. C=C(C(N)=O)[C@@H](NC(=O)[C@H](Cc1c[nH]c2ccccc12)NC(=O)[C@@H]1CCN(C(=O)[C@@H](N)Cc2c(C)cc(O)cc2C)C1)c1ccco1	99.5%

====

A collection of compounds and their measured Ratio Ki
Species: Homo sapiens
Experiment: Selectivity ratio of Ki for Myc-tagged delta-type opioid receptor (unknown origin) to Ki for FLAG-tagged mu-type opioid receptor (unknown origin)
observed property: Ratio Ki

1. C=C(C(N)=O)[C@@H](NC(=O)[C@H](Cc1c[nH]c2ccccc12)NC(=O)[C@@H]1CCN(C(=O)[C@@H](N)Cc2ccc(O)cc2)C1)c1ccccc1	9490
2. C=C(C(=O)O)[C@@H](NC(=O)[C@H](Cc1c[nH]c2ccccc12)NC(=O)[C@@H]1CCCN1C(=O)[C@@H](N)Cc1c(C)cc(O)cc1C)c1ccco1	548
3. C=C(C(N)=O)[C@@H](NC(=O)[C@H](Cc1c[nH]c2ccccc12)NC(=O)[C@H]1CCN(C(=O)[C@@H](N)Cc2c(C)cc(O)cc2C)C1)c1ccco1	2380
4. C=C(C(N)=O)[C@@H](NC(=O)[C@H](Cc1c[nH]c2ccccc12)NC(=O)[C@H]1CCN(C(=O)[C@@H](N)Cc2ccc(O)cc2)C1)c1ccco1	9170

====

Test system: Mus musculus
Assay: Antinociceptive activity in Kunming mouse assessed as tail withdrawal latency at 2 mg/kg, iv by hot water tail-flick test in presence of naloxone methiodide
Assay type: functional, organism-based
Set-up: dose 2 mg/kg
Active and inactive are the calls of the source. The rule behind the calls is not given here.
observed property: Activity

1. C=C(C(N)=O)[C@@H](NC(=O)[C@H](Cc1c[nH]c2ccccc12)NC(=O)[C@H]1CCN(C(=O)[C@@H](N)Cc2c(C)cc(O)cc2C)C1)c1ccccc1	Active
2. C=C(C(N)=O)[C@@H](NC(=O)[C@H](Cc1c[nH]c2ccccc12)NC(=O)[C@@H]1CCN(C(=O)[C@@H](N)Cc2c(C)cc(O)cc2C)C1)c1ccco1	Active
3. CN1CC[C@]23c4c5ccc(O)c4O[C@H]2[C@@H](O)C=C[C@H]3[C@H]1C5	Active
4. C=C(C(N)=O)[C@@H](NC(=O)[C@H](Cc1c[nH]c2ccccc12)NC(=O)[C@@H]1CCN(C(=O)[C@@H](N)Cc2c(C)cc(O)cc2C)C1)c1ccccc1	Active
5. C=C(C(N)=O)[C@@H](NC(=O)[C@H](Cc1c[nH]c2ccccc12)NC(=O)[C@H]1CCN(C(=O)[C@@H](N)Cc2c(C)cc(O)cc2C)C1)c1ccco1	Active

====

Quick reference: IC50 of the listed items.
Molecular target: Mu-type opioid receptor (Mus musculus)
Sequence (P42866 whole entry): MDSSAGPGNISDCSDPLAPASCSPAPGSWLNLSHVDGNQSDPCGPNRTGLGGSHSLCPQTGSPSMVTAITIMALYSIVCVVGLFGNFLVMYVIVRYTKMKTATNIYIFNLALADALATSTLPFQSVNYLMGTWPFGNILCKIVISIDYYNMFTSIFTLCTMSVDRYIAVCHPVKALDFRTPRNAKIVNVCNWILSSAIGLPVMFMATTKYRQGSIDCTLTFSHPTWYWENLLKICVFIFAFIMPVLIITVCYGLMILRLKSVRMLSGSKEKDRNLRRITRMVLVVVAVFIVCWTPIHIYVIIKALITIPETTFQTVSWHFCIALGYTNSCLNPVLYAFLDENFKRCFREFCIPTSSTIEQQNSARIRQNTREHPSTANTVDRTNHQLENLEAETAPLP
Assay: Agonist activity at mu-type opioid receptor in Kunming mouse vas deferens assessed as inhibition of electrically evoked muscle contraction
observed property: IC50 (nM)

1) C=C(C(=O)O)[C@@H](NC(=O)[C@H](Cc1c[nH]c2ccccc12)NC(=O)[C@@H]1CCCN1C(=O)[C@@H](N)Cc1c(C)cc(O)cc1C)c1ccccc1	0.556
2) C=C(C(N)=O)[C@@H](NC(=O)[C@H](Cc1c[nH]c2ccccc12)NC(=O)[C@H]1CCN(C(=O)[C@@H](N)Cc2c(C)cc(O)cc2C)C1)c1ccccc1	1.53
3) C=C(C(N)=O)[C@@H](NC(=O)[C@H](Cc1c[nH]c2ccccc12)NC(=O)[C@@H]1CCN(C(=O)[C@@H](N)Cc2ccc(O)cc2)C1)c1ccco1	2.91

====

Target: UniProtKB P41145
Sequence (P41145 whole entry): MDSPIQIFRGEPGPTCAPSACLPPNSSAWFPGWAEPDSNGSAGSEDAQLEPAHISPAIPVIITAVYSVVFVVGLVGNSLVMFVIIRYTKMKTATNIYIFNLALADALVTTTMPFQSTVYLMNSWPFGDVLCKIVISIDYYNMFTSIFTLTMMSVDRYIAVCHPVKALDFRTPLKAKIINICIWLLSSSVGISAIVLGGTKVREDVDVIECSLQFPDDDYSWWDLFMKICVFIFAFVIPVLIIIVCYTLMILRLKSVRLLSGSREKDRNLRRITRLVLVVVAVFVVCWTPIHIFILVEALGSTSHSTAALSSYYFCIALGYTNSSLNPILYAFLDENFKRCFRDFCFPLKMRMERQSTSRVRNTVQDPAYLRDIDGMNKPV
The label is fulfilled for Ki below 200 nM and not fulfilled for Ki equal to or exceeding 200 nM.

1. C=C(C(=O)O)[C@@H](NC(=O)[C@H](Cc1c[nH]c2ccccc12)NC(=O)[C@@H]1CCCN1C(=O)[C@@H](N)Cc1c(C)cc(O)cc1C)c1ccccc1	fulfilled
2. C=C(C(N)=O)[C@@H](NC(=O)[C@H](Cc1c[nH]c2ccccc12)NC(=O)[C@H]1CCN(C(=O)[C@@H](N)Cc2c(C)cc(O)cc2C)C1)c1ccco1	fulfilled
3. C=C(C(N)=O)[C@@H](NC(=O)[C@H](Cc1c[nH]c2ccccc12)NC(=O)[C@H]1CCN(C(=O)[C@@H](N)Cc2c(C)cc(O)cc2C)C1)c1ccccc1	not fulfilled
4. C=C(C(N)=O)[C@@H](NC(=O)[C@H](Cc1c[nH]c2ccccc12)NC(=O)[C@@H]1CCN(C(=O)[C@@H](N)Cc2c(C)cc(O)cc2C)C1)c1ccccc1	fulfilled

====

Listed here: items and their measured Emax.
Target: Delta-type opioid receptor (Homo sapiens, UniProt P41143)
Sequence (P41143 whole entry): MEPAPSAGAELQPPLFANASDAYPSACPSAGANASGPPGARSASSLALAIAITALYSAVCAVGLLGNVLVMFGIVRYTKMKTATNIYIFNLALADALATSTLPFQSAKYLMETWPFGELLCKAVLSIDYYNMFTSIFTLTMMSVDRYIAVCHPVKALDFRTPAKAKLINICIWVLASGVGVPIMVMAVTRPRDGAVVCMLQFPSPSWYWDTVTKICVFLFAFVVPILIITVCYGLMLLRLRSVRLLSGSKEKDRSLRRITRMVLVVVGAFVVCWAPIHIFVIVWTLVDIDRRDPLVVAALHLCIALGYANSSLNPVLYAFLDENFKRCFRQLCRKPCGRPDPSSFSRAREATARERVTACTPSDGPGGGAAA
Assay: Agonist activity at Myc-tagged delta-type opioid receptor (unknown origin) expressed in HEK293 cells assessed as inhibition of forskolin-stimulated cAMP accumulation after 30 mins by liquid scintillation counting analysis relative to DAMGO
Format: functional, cell-based
observed property: Emax

1) C=C(C(N)=O)[C@@H](NC(=O)[C@H](Cc1c[nH]c2ccccc12)NC(=O)[C@@H]1CCN(C(=O)[C@@H](N)Cc2c(C)cc(O)cc2C)C1)c1ccco1	73.8%
2) C=C(C(N)=O)[C@@H](NC(=O)[C@H](Cc1c[nH]c2ccccc12)NC(=O)[C@@H]1CCN(C(=O)[C@@H](N)Cc2c(C)cc(O)cc2C)C1)c1ccccc1	72.1%
3) C=C(C(N)=O)[C@@H](NC(=O)[C@H](Cc1c[nH]c2ccccc12)NC(=O)[C@H]1CCN(C(=O)[C@@H](N)Cc2c(C)cc(O)cc2C)C1)c1ccccc1	77.6%
4) C=C(C(=O)O)[C@@H](NC(=O)[C@H](Cc1c[nH]c2ccccc12)NC(=O)[C@@H]1CCCN1C(=O)[C@@H](N)Cc1c(C)cc(O)cc1C)c1ccco1	76.3%
5) C=C(C(=O)O)[C@@H](NC(=O)[C@H](Cc1c[nH]c2ccccc12)NC(=O)[C@@H]1CCCN1C(=O)[C@@H](N)Cc1c(C)cc(O)cc1C)c1ccccc1	77.5%
6) C=C(C(N)=O)[C@@H](NC(=O)[C@H](Cc1c[nH]c2ccccc12)NC(=O)[C@H]1CCN(C(=O)[C@@H](N)Cc2c(C)cc(O)cc2C)C1)c1ccco1	72.2%

====

Molecular target: UniProt P35372
Assay: Agonist activity at FLAG-tagged mu-type opioid receptor (unknown origin) expressed in HEK293 cells assessed as stimulation of ERK1/2 phosphorylation at 1 uM after 10 mins by Western blotting analysis
Type: cell-based
Conditions: TDE = time-dependent effect
observed property: Activity

1. C=C(C(N)=O)[C@@H](NC(=O)[C@H](Cc1c[nH]c2ccccc12)NC(=O)[C@@H]1CCN(C(=O)[C@@H](N)Cc2c(C)cc(O)cc2C)C1)c1ccccc1	tde
2. C=C(C(N)=O)[C@@H](NC(=O)[C@H](Cc1c[nH]c2ccccc12)NC(=O)[C@@H]1CCN(C(=O)[C@@H](N)Cc2c(C)cc(O)cc2C)C1)c1ccco1	tde
3. C=C(C(N)=O)[C@@H](NC(=O)[C@H](Cc1c[nH]c2ccccc12)NC(=O)[C@H]1CCN(C(=O)[C@@H](N)Cc2c(C)cc(O)cc2C)C1)c1ccco1	tde
4. C=C(C(N)=O)[C@@H](NC(=O)[C@H](Cc1c[nH]c2ccccc12)NC(=O)[C@H]1CCN(C(=O)[C@@H](N)Cc2c(C)cc(O)cc2C)C1)c1ccccc1	tde

====

Molecular target: Delta-type opioid receptor (Homo sapiens, UniProt P41143)
Assay: Agonist activity at Myc-tagged delta-type opioid receptor (unknown origin) expressed in HEK293 cells assessed as inhibition of forskolin-stimulated cAMP accumulation after 30 mins by liquid scintillation counting analysis
pEC50: −log10 of the molar value.
Quick list: pEC50 per entry.
observed property: pEC50

1) C=C(C(=O)O)[C@@H](NC(=O)[C@H](Cc1c[nH]c2ccccc12)NC(=O)[C@@H]1CCCN1C(=O)[C@@H](N)Cc1c(C)cc(O)cc1C)c1ccccc1	7.29
2) C=C(C(N)=O)[C@@H](NC(=O)[C@H](Cc1c[nH]c2ccccc12)NC(=O)[C@@H]1CCN(C(=O)[C@@H](N)Cc2c(C)cc(O)cc2C)C1)c1ccco1	7.05
3) C=C(C(N)=O)[C@@H](NC(=O)[C@H](Cc1c[nH]c2ccccc12)NC(=O)[C@H]1CCN(C(=O)[C@@H](N)Cc2c(C)cc(O)cc2C)C1)c1ccco1	7.33
4) C=C(C(=O)O)[C@@H](NC(=O)[C@H](Cc1c[nH]c2ccccc12)NC(=O)[C@@H]1CCCN1C(=O)[C@@H](N)Cc1c(C)cc(O)cc1C)c1ccco1	7.31
5) C=C(C(N)=O)[C@@H](NC(=O)[C@H](Cc1c[nH]c2ccccc12)NC(=O)[C@@H]1CCN(C(=O)[C@@H](N)Cc2c(C)cc(O)cc2C)C1)c1ccccc1	7.32
6) C=C(C(N)=O)[C@@H](NC(=O)[C@H](Cc1c[nH]c2ccccc12)NC(=O)[C@H]1CCN(C(=O)[C@@H](N)Cc2c(C)cc(O)cc2C)C1)c1ccccc1	7.39
